Test system: Staphylococcus aureus SAU.278, Daptomycin resistant mutant (D10)
Type: cell-based
Settings: MHBc with 50 mg/L calcium, 18-20 hours at 37° C.
Please go through the items and note down their Sa278 MIC.
A complete answer gives the number followed by the unit.

Example compounds with recorded Sa278 MIC:
CCCCCC1CCC(NC(=O)N[C@@H](Cc2c[nH]c3ccccc23)C(=O)N[C@H](CC(N)=O)C(=O)N[C@@H](CC(=O)O)C(=O)N[C@@H]2C(=O)NCC(=O)N[C@@H](CCCN)C(=O)N[C@@H](CC(=O)O)C(=O)N[C@H](C)C(=O)N[C@@H](CC(=O)O)C(=O)NCC(=O)N[C@H](CO)C(=O)N[C@@H]([C@H](C)CC(=O)O)C(=O)N[C@@H](CC(=O)c3ccccc3N)C(=O)O[C@@H]2C)CC1 (some centres unmarked) :: 0.25 µg/mL
C[C@H](CC(=O)O)[C@@H]1NC(=O)[C@@H](CO)NC(=O)CNC(=O)[C@H](CC(=O)O)NC(=O)[C@@H](C)NC(=O)[C@H](CC(=O)O)NC(=O)[C@H](CCCN)NC(=O)CNC(=O)[C@@H](NC(=O)[C@H](CC(=O)O)NC(=O)[C@@H](CC(N)=O)NC(=O)[C@H](Cc2c[nH]c3ccccc23)NC(=O)/C=C/c2ccc(-c3ccccc3)cc2)[C@@H](C)OC(=O)[C@H](CC(=O)c2ccccc2N)NC1=O :: 32 µg/mL
C[C@H](CC(=O)O)[C@@H]1NC(=O)[C@@H](CO)NC(=O)CNC(=O)[C@H](CC(=O)O)NC(=O)[C@@H](C)NC(=O)[C@H](CC(=O)O)NC(=O)[C@H](CCCN)NC(=O)CNC(=O)[C@@H](NC(=O)[C@H](CC(=O)O)NC(=O)[C@@H](CC(N)=O)NC(=O)[C@H](Cc2c[nH]c3ccccc23)NC(=O)C2CCC(c3ccc(Cl)cc3)CC2)[C@@H](C)OC(=O)[C@H](CC(=O)c2ccccc2N)NC1=O (some centres unmarked) :: 4 µg/mL
CCCSc1ccc(-c2csc(C(=O)N[C@@H](Cc3c[nH]c4ccccc34)C(=O)N[C@H](CC(N)=O)C(=O)N[C@@H](CC(=O)O)C(=O)N[C@@H]3C(=O)NCC(=O)N[C@@H](CCCN)C(=O)N[C@@H](CC(=O)O)C(=O)N[C@H](C)C(=O)N[C@@H](CC(=O)O)C(=O)NCC(=O)N[C@H](CO)C(=O)N[C@@H]([C@H](C)CC(=O)O)C(=O)N[C@@H](CC(=O)c4ccccc4N)C(=O)O[C@@H]3C)c2)cc1 :: 8 µg/mL

INPUT: I'd like to know its Sa278 MIC. The compound in question is CCCCCCC12CCC(C(=O)N[C@@H](Cc3c[nH]c4ccccc34)C(=O)N[C@H](CC(N)=O)C(=O)N[C@@H](CC(=O)O)C(=O)N[C@@H]3C(=O)NCC(=O)N[C@@H](CCCN)C(=O)N[C@@H](CC(=O)O)C(=O)N[C@H](C)C(=O)N[C@@H](CC(=O)O)C(=O)NCC(=O)N[C@H](CO)C(=O)N[C@@H]([C@H](C)CC(=O)O)C(=O)N[C@@H](CC(=O)c4ccccc4N)C(=O)O[C@@H]3C)(CC1)CC2
OUTPUT: 1 µg/mL
